Experiment: Acute toxicity in mice (LD50, Bliss' method)
Conditions: mouse, in vivo, iv, read-out: Lethal doses50 i.v.
measuredParameter: LD50

| molecule | measuredParameter | result |
| --- | --- | --- |
| CC1Cc2cc(Cl)cc(C(=O)NCC3CCCN3CC3=CCCCC3)c2O1 (stereo not drawn) | LD50 | 31.1 to 34.7 mg/kg |
| CCN1CCCC1CNC(=O)c1cc(S(=O)(=O)CC2CC2)cc2c1OCCC2 (stereo not drawn) | LD50 | 65.2 to 67.6 mg/kg |

I would be grateful if you could share the reported LD50 for CCS(=O)(=O)c1cc2c(c(C(=O)NCC3CCCN3CC3CC3)c1)OC(C)C2.Cl (stereo not drawn) .
68.8 to 70.2 mg/kg
